Form field: total protein half-life in vivo (one value per entry).
test: total protein half-life in vivo (active degradation + dilution); higher = more stable protein; conditions: E. coli NCM3722 delta-clpP; growth: N-lim chemostat; doubling time 6 h
Use h as the unit, but write only the number.

>  <ITEM SEQUENCE>
MNYSLKQLKVFVTVAQEKSFSRAGERIGLSQSAVSHSVKELENHTGVRLLDRTTREVVLTDAGQQLALRLERLLDELNSTLRDTGRMGQQLSGKVRVAASQTISAHLIPQCIAESHRRYPDIQFVLHDRPQQWVMESIRQGDVDFGIVIDPGPVGDLQCEAILSEPFFLLCHRDSALAVEDYVPWQALQGAKLVLQDYASGSRPLIDAALARNGIQANIVQEIGHPATLFPMVAAGIGISILPALALPLPEGSPLVVKRITPVVERQLMLVRRKNRSLSTAAEALWDVVRDQGNALMAGREGDPLYQI [P0ACR7]

>  <MEASURE UNIT>
h

>  <total protein half-life in vivo>
4.84

$$$$

Problem: Request the reported total protein half-life in vivo associated with `MPHNPIRVVVGPANYFSHPGSFNHLHDFFTDEQLSRAVWIYGKRAIAAAQTKLPPAFGLPGAKHILFRGHCSESDVQQLAAESGDDRSVVIGVGGGALLDTAKALARRLGLPFVAVPTIAATCAAWTPLSVWYNDAGQALHYEIFDDANFMVLVEPEIILNAPQQYLLAGIGDTLAKWYEAVVLAPQPETLPLTVRLGINNAQAIRDVLLNSSEQALSDQQNQQLTQSFCDVVDAIIAGGGMVGGLGDRFTRVAAAHAVHNGLTVLPQTEKFLHGTKVAYGILVQSALLGQDDVLAQLTGAYQRFHLPTTLAELEVDINNQAEIDKVIAHTLRPVESIHYLPVTLTPDTLRAAFKKVESFKA`
Result: 4.6

###

assay: total protein half-life in vivo (active degradation + dilution); higher = more stable protein; conditions: wild type E. coli NCM3722; growth: P-lim chemostat; doubling time 12 h
Label condition met when total protein half-life in vivo >= 10 h; otherwise condition not met.

Completed entries (count: 6):
>  <ITEM SEQUENCE>
MARARGRGRRDLKSEINIVPLLDVLLVLLLIFMATAPIITQSVEVDLPDATESQAVSSNDNPPVIVEVSGIGQYTVVVEKDRLERLPPEQVVAEVSSRFKANPKTVFLIGGAKDVPYDEIIKALNLLHSAGVKSVGLMTQPI [P0ABV6]

>  <LABEL CLASS>
condition met

$$$$
>  <ITEM SEQUENCE>
MNAEKSPVNHNVDHEEIAKFEAVASRWWDLEGEFKPLHRINPLRLGYIAERAGGLFGKKVLDVGCGGGILAESMAREGATVTGLDMGFEPLQVAKLHALESGIQVDYVQETVEEHAAKHAGQYDVVTCMEMLEHVPDPQSVVRACAQLVKPGGDVFFSTLNRNGKSWLMAVVGAEYILRMVPKGTHDVKKFIKPAELLGWVDQTSLKERHITGLHYNPITNTFKLGPGVDVNYMLHTQNK

>  <LABEL CLASS>
condition not met

$$$$
>  <ITEM SEQUENCE>
MANNTTGFTRIIKAAGYSWKGLRAAWINEAAFRQEGVAVLLAVVIACWLDVDAITRVLLISSVMLVMIVEILNSAIEAVVDRIGSEYHELSGRAKDMGSAAVLIAIIVAVITWCILLWSHFG [P0ABN1]

>  <LABEL CLASS>
condition met

$$$$
>  <ITEM SEQUENCE>
MKALARFGKAFGGYKMIDVPQPMCGPEDVVIEIKAAAICGADMKHYNVDSGSDEFNSIRGHEFAGCIAQVGEKVKDWKVGQRVVSDNSGHVCGVCPACEQGDFLCCTEKVNLGLDNNTWGGGFSKYCLVPGEILKIHRHALWEIPDGVDYEDAAVLDPICNAYKSIAQQSKFLPGQDVVVIGTGPLGLFSVQMARIMGAVNIVVVGLQEDVAVRFPVAKELGATAVVNGSTEDVVARCQQICGKDNLGLVIECSGANIALKQAIEMLRPNGEVVRVGMGFKPLDFSINDITAWNKSIIGHMAYDSTSWRNAIRLLASGAIKVKPMITHRIGLSQWREGFDAMVDKTAIKVIMTYDFDE

>  <LABEL CLASS>
condition not met

$$$$
>  <ITEM SEQUENCE>
MRVLVVEDNALLRHHLKVQIQDAGHQVDDAEDAKEADYYLNEHIPDIAIVDLGLPDEDGLSLIRRWRSNDVSLPILVLTARESWQDKVEVLSAGADDYVTKPFHIEEVMARMQALMRRNSGLASQVISLPPFQVDLSRRELSINDEVIKLTAFEYTIMETLIRNNGKVVSKDSLMLQLYPDAELRESHTIDVLMGRLRKKIQAQYPQEVITTVRGQGYLFELR

>  <LABEL CLASS>
condition not met

$$$$
>  <ITEM SEQUENCE>
MYRIVLGKVSTLSAAPLPPGLREQAPQGPRRERWLAGRALLSHTLSPLPEIIYGEQGKPAFAPEMPLWFNLSHSGDDIALLLSDEGEVGCDIEVIRPRANWRWLANAVFSLGEHAEMDAVHPDQQLEMFWRIWTRKEAIVKQRGGSAWQIVSVDSTYHSSLSVSHCQLENLSLAICTPTPFTLTADSVQWIDSVN

>  <LABEL CLASS>
condition met

$$$$

Problem: Confirm if total protein half-life in vivo reported for the sequence `MSDISKASLPKAIFLMGPTASGKTALAIELRKILPVELISVDSALIYKGMDIGTAKPNAEELLAAPHRLLDIRDPSQAYSAADFRRDALAEMADITAAGRIPLLVGGTMLYFKALLEGLSPLPSADPEVRARIEQQAAEQGWESLHRQLQEVDPVAAARIHPNDPQRLSRALEVFFISGKTLTELTQTSGDALPYQVHQFAIAPASRELLHQRIEQRFHQMLASGFEAEVRALFARGDLHTDLPSIRCVGYRQMWSYLEGEISYDEMVYRGVCATRQLAKRQITWLRGWEGVHWLDSEKPEQARDEVLQVVGAIAG` is 10 h or above.
Result: condition met

Problem: Decide: is the reported value of total protein half-life in vivo for `MRWLPFIAIFLYVYIEISIFIQVAHVLGVLLTLVLVIFTSVIGMSLVRNQGFKNFVLMQQKMAAGENPAAEMIKSVSLIIAGLLLLLPGFFTDFLGLLLLLPPVQKHLTVKLMPHLRFSRMPGGGFSAGTGGGNTFDGEYQRKDDERDRLDHKDDRQD` equal to or greater than 10 h?
Result: condition met

Problem: Entry MNKSQLIDKIAAGADISKAAAGRALDAIIASVTESLKEGDDVALVGFGTFAVKERAARTGRNPQTGKEITIAAAKVPSFRAGKALKDAVN [P0ACF4] : is its total protein half-life in vivo no less than 10 h?
Result: condition met

Problem: Has `MERIVVTLGERSYPITIASGLFNEPASFLPLKSGEQVMLVTNETLAPLYLDKVRGVLEQAGVNVDSVILPDGEQYKSLAVLDTVFTALLQKPHGRDTTLVALGGGVVGDLTGFAAASYQRGVRFIQVPTTLLSQVDSSVGGKTAVNHPLGKNMIGAFYQPASVVVDLDCLKTLPPRELASGLAEVIKYGIILDGAFFNWLEENLDALLRLDGPAMAYCIRRCCELKAEVVAADERETGLRALLNLGHTFGHAIEAEMGYGNWLHGEAVAAGMVMAARTSERLGQFSSAETQRIITLLKRAGLPVNGPREMSAQAYLPHMLRDKKVLAGEMRLILPLAIGKSEVRSGVSHELVLNAIADCQSA` a recorded total protein half-life in vivo greater than or equal to 10 h?
Result: condition met

Problem: Hi team, for `MQCALYDAGRCRSCQWIMQPIPEQLSAKTADLKNLLADFPVEEWCAPVSGPEQGFRNKAKMVVSGSVEKPLLGMLHRDGTPEDLCDCPLYPASFAPVFAALKPFIARAGLTPYNVARKRGELKYILLTESQSDGGMMLRFVLRSDTKLAQLRKALPWLHEQLPQLKVITVNIQPVHMAIMEGETEIYLTEQQALAERFNDVPLWIRPQSFFQTNPAVASQLYATARDWVRQLPVKHMWDLFCGVGGFGLHCATPDMQLTGIEIASEAIACAKQSAAELGLTRLQFQALDSTQFATAQGDVPELVLVNPPRRGIGKPLCDYLSTMAPRFIIYSSCNAQTMAKDIRELPGFRIERVQLFDMFPHTAHYEVLTLLVKQ` , is the recorded total protein half-life in vivo at or above 10 h?
Result: condition met

###

experiment: total protein half-life in vivo (active degradation + dilution); higher = more stable protein; conditions: wild type E. coli NCM3722; growth: C-lim chemostat; doubling time 12 h
EXPERIMENTAL ENDPOINT: total protein half-life in vivo (h)
Provide only the numeric value, understood in h.

Problem: // total protein half-life in vivo lookup, key: `MNHSLKPWNTFGIDHNAQHIVCAEDEQQLLNAWQYATAEGQPVLILGEGSNVLFLEDYRGTVIINRIKGIEIHDEPDAWYLHVGAGENWHRLVKYTLQEGMPGLENLALIPGCVGSSPIQNIGAYGVELQRVCAYVDSVELATGKQVRLTAKECRFGYRDSIFKHEYQDRFAIVAVGLRLPKEWQPVLTYGDLTRLDPTTVTPQQVFNAVCHMRTTKLPDPKVNGNAGSFFKNPVVSAETAKALLSQFPTAPNYPQADGSVKLAAGWLIDQCQLKGMQIGGAAVHRQQALVLINEDNAKSEDVVQLAHHVRQKVGEKFNVWLEPEVRFIGASGEVSAVETIS`
Result: 9.87
